Measured %Inh, listed per entry.
- Test system: MARK1
- details: concentration: 1 μM, replicates: in singlicate; n = 1;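 also: KINOMEscan kinase panel screen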

Any idea what its %Inh is? The molecule is CN1C(=O)C(Nc2cc(Cl)c(O)c(Cl)c2)=C(c2ccc(Cl)cc2)C1=O [SB-404321]
0%

Query: %Inh; subject: `CCC(=O)c1c(-c2ccccc2)c2cc(Cl)ccc2c(=O)n1Cc1cc(C(=O)NC2CC2)n(C)n1`
13%

Looking for the measured %Inh of COc1ccc(CNC(=O)NC2CCN(c3ccnc(Nc4ccc(F)cc4)n3)C2)cc1 (stereo not drawn) [GSK1379706] , can you help?
0%

Could you tell me which %Inh is on file for `Cc1ccc(-c2ccc3c(ccc4sc5c(c43)NC[C@@H](C)N=C5N(C)C)n2)cn1` ?
0%

Fill in the blank: the reported %Inh of CN1C(=O)C(Nc2ccccc2)=C(c2ccccc2)C1=O [SB-300079] is ____.
10%

Which %Inh is listed for O=C(NCCNc1ccnc(Nc2ccc(F)cc2)n1)Nc1ccc2c(c1)OCO2 [GSK1379882] ?
0%

----------
- Test system: TAK1
- Construct: gene MAP3K7
- details: concentration: 1 μM, replicates: in singlicate; n = 1
Entries and their measured %Inh follow.
Provide only the numeric value, understood in %.

Query for TAK1: what %Inh does the record show for `OCCCNc1nccc(-c2c(-c3cccc(C(F)(F)F)c3)nn3cc(C(F)(F)F)ccc23)n1` ?
0

Param readout= %Inh; system= TAK1; entry= `Nc1n[nH]c2ncc(-c3ccccc3)cc12` ; returns value.
0

Form entry - test system: TAK1; read-out: %Inh; compound: `COc1ccc(-n2cnc3c(N)ncnc32)cc1`
30

----------
Measured %Inh, listed per entry for reference.
- System: ERN1
- details: concentration: 1 μM, replicates: in singlicate; n = 1
Please give a number only; it is taken to be in %.

Below, each entry is followed by its recorded %Inh result.
[
  {
    "compound_smiles": "COc1cc2nccc(Nc3cccc(Oc4ccccc4)c3)c2cc1OC.Cl",
    "readout_type": "%Inh",
    "value_units": "%",
    "endpoint_value": 8
  },
  {
    "compound_smiles": "COc1cc2ncn(-c3cc(OCc4ccncc4)c(C(N)=O)s3)c2cc1OC",
    "readout_type": "%Inh",
    "value_units": "%",
    "endpoint_value": 23
  }
]

Tell me the measured %Inh of `CC(C)(C)c1ccc(C(=O)Nc2cn3cc(-c4ccccc4)ccc3n2)cc1` , please.
26

----------
Entries and their %Inh values follow.
- Test system: WNK2
- details: concentration: 1 μM, replicates: in singlicate; n = 1
Write the number in % without appending the unit.

Answered examples (2):
[
  {
    "compound": "Nc1n[nH]c2ncc(-c3ccccc3)cc12 [SB-517081]",
    "%Inh [%]": 0
  },
  {
    "compound": "COc1cc2nccc(Nc3cccc(Oc4ccccc4)c3)c2cc1OC.Cl [GW284543]",
    "%Inh [%]": 11
  }
]

Record FC(F)(F)c1ccc(-c2ncn(CCCN3CCOCC3)c2-c2ccncc2)cc1 [SB-217780] : what is its %Inh with WNK2?
0

Recall the recorded %Inh for `CCc1ccc(-c2ccc3c(c2)-c2nn(C)cc2S(=O)(=O)N3C)cc1` with WNK2 and state it.
0

Please provide the recorded %Inh for CCCC(=O)Nc1n[nH]c2ncc(-c3cccc4ccccc34)cc12 [SB-642057] , tested on WNK2.
6

What measured %Inh is associated with `CCC(=O)c1c(-c2ccccc2)c2cc(Cl)ccc2c(=O)n1Cc1ccc(C(=O)O)cc1` on WNK2?
0

I'm curious: which %Inh was measured for `CCc1nc(-c2cccc(C)c2)c(-c2ccncc2)s1` tested on WNK2?
0

Query the reported %Inh for WNK2; item: O=C(Nc1ccc2c(c1)OCO2)NC1CCN(c2ccnc(NCc3ccc(F)cc3)n2)CC1 [GSK1379859]
0

Record lookup: for WNK2, what %Inh belongs to OCCCNc1nccc(-c2c(-c3cccc(C(F)(F)F)c3)nn3cc(C(F)(F)F)ccc23)n1 [GW630813] ?
0

Form field - read-out: %Inh; system: WNK2; submitted item: `Cc1ccc(Oc2ccc(Nc3ncnc4cc[nH]c34)cc2C)cn1`
0

Values compiled from paper PMC5540273.
